Each recorded value in this set is attributed to PubChem BioAssay (NCI).

Measured GI50 of individual entries
System: 786-0 renal
Experiment: NCI tumour cell line growth inhibition, 48 h

compound	GI50
O=C1c2cccc(Oc3ccccc3)c2C(=O)c2cccc(Oc3ccccc3)c21	27.5 µM
O=C(NCCNCCO)c1ccc2c(c1)oc1cc3ccccc3c(=O)n12	> 50 µM
CCCCCOc1ccc(/C=N/Nc2cc(C)nc3ccc(Cl)cc23)cc1	1.78 µM
N#CC1c2ccccc2C=CN1C(=O)CCCl (stereo unspecified)	14 µM
CCN1C(=S)N(CC)C2C1NC(=S)N2/N=C/C=C/c1ccccc1OC (stereo unspecified)	0.67 µM
N#CC1(c2ccc(NC(=O)c3cccnc3NCc3ccncc3)cc2)CCCC1	14.5 µM
O=C1C=C[C@H](O)[C@@]2(CO)O[C@@H]12	16.4 µM
CNC(=O)c1ncccc1Nc1nc(Nc2cc3c(cc2OC)CCCN3C(=O)CN(C)C)nc2[nH]ccc12	3.23 µM
COc1cc2c(cc1Nc1nc(N3CCc4ccccc43)c3cc[nH]c3n1)N(C(=O)CN(C)C)CC2	3 µM
c1ccc(-c2[nH]ncc2-c2ccnc(-c3ccc(OCCn4ccnc4)cc3)c2)nc1	> 25 µM
O=C(OCc1ccc2c(Br)cc(Br)c(O)c2n1)c1cc2ccccc2[nH]1	0.851 µM

----------
The following compounds are listed with their measured TGI values.
System: HS 578T breast
Test: NCI tumour cell line growth inhibition, 48 h

compound	TGI
CC(C)NC(=O)OCc1c(COC(=O)NC(C)C)n(C)c2c1ccc1sccc12	34.6 µM
O=c1oc2ccc3ccccc3c2cc1-c1cn2ccsc2n1	> 100 µM
O=C(CC(NC(=O)C(F)(F)F)C(=O)O)OCc1ccccc1 (stereo unspecified)	> 100 µM
COc1ccc2nc(NC(=O)/C(C#N)=C/c3ccccc3)sc2c1	> 100 µM
O=CC(I)=C(c1ccccc1)c1ccccc1	63 µM
Cc1c2cccc-2c2cc(O)c3ccccc3c2n1-c1ccc(N(C)C)cc1	37.5 µM
Cc1ccc(O)cc1Nc1ccnc2ccc(S(C)(=O)=O)cc12	4.25 µM
CN(C)CCCC1(c2ccc(F)cc2)OCc2cc(-c3cccc4[nH]ccc34)ccc21 (stereo unspecified)	5.03 µM
Cn1nccc1Nc1nccc(-c2ccn([C@H](CO)c3ccc(Cl)c(F)c3)c(=O)c2)n1	> 100 µM
COc1ccc2ccc3oc(=O)c(C)cc3c2c1	> 100 µM
O=C(/C=C/C12c3ccccc3C(c3ccccc31)C1C(=O)NC(=O)C12)c1ccccn1 (stereo unspecified)	23 µM
O=c1oc2ccccc2c(O)c1Cc1ccc(Cc2c(O)c3ccccc3oc2=O)cc1	> 100 µM
COC(=O)CNC(=O)C(CSC(=O)OCC1c2ccccc2-c2ccccc21)NC(=O)CCC(NC(=O)OCC1c2ccccc2-c2ccccc21)C(=O)OC (stereo unspecified)	> 100 µM
CN1CSC(=S)N(c2cccc(C(F)(F)F)c2)C1	82.2 µM
CC(C)Oc1cccc(N2C(n3ccnc3)=Nc3ccncc3S2(=O)=O)c1	38.5 µM
O=C(NCc1ccccc1)c1cc2ccccc2oc1=Nc1cccc(C(F)(F)F)c1	> 100 µM
CNC(=O)c1ncccc1Nc1nc(Nc2cc3c(cc2OC)CCCN3C(=O)CN(C)C)nc2[nH]ccc12	5.69 µM
OCc1cn(Cc2ccccc2)c2ccccc12	30.4 µM
CC1=CC2C3(C)C(C)(C(C)=CP3(=O)c3c(C(C)C)cc(C(C)C)cc3C(C)C)C1P2(=O)c1c(C(C)C)cc(C(C)C)cc1C(C)C (stereo unspecified)	6.25 µM
Cc1ccc2cccc(-c3cccc4ccccc34)c2n1	81.9 µM
O=C(OCc1ccc2c(Br)cc(Br)c(O)c2n1)c1cc2ccccc2[nH]1	3.87 µM
